Catalogue of compounds with associated remaining at 24 h, 100 µM
test: Stability in human serum at 100 uM after 24 hrs; format: ADME, cell-free; conditions: read-out: Stability

[[record]]
compound = "NS(=O)(=O)c1ccc(-n2cnc(Cl)c2-c2ccc(OCCO[N+](=O)[O-])c(F)c2)cc1"
endpoint_label = "remaining at 24 h, 100 µM"
assay_value = "> 98%"

[[record]]
compound = "NS(=O)(=O)c1ccc(-n2cnc(Cl)c2-c2ccc(OCCCO[N+](=O)[O-])c(F)c2)cc1"
endpoint_label = "remaining at 24 h, 100 µM"
assay_value = "> 98%"

[[record]]
compound = "CS(=O)(=O)c1ccc(-n2cnc(Cl)c2-c2ccc(OCC(CO[N+](=O)[O-])O[N+](=O)[O-])c(F)c2)cc1 (stereo not given)"
endpoint_label = "remaining at 24 h, 100 µM"
assay_value = "> 97%"

[[record]]
compound = "CS(=O)(=O)c1ccc(-n2cnc(Cl)c2-c2ccc(OCCCO[N+](=O)[O-])c(F)c2)cc1"
endpoint_label = "remaining at 24 h, 100 µM"
assay_value = "> 98%"


[Q] Recorded remaining at 24 h, 100 µM for "CS(=O)(=O)c1ccc(-n2cnc(Cl)c2-c2ccc(OCCO[N+](=O)[O-])c(F)c2)cc1" , please?
[A] > 98%
